# Lookup of reported GI50 keyed by entry
- Tested on: SR leukemia
- Procedure Text: NCI tumour cell line growth inhibition, 48 h

Field GI50 (entry ClC1=NC(Cl)C(Cl)=N/C1=N\c1ncn[nH]1 (stereo not given) ) reads 1.3 µM

What the record says about COc1cccc(-n2ncc3c(N/N=C/c4ccc(S(C)(=O)=O)cc4)ncnc32)c1 : GI50 is > 12.4 µM

The compound listed as COc1c(NC(=O)CC(C)=O)[c]([Hg][O]C(C)=O)c(OC)c(Cl)[c]1[Hg][O]C(C)=O shows GI50 equal to 3.67 µM

Quick note, GI50 for O=C(OCC1OC(OC(=O)c2cc(O)c(O)c(OC(=O)c3cc(O)c(O)c(O)c3)c2)C(OC(=O)c2cc(O)c(O)c(OC(=O)c3cc(O)c(O)c(O)c3)c2)C(OC(=O)c2cc(O)c(O)c(OC(=O)c3cc(O)c(O)c(O)c3)c2)C1OC(=O)c1cc(O)c(O)c(OC(=O)c2cc(O)c(O)c(O)c2)c1)c1cc(O)c(O)c(OC(=O)c2cc(O)c(O)c(O)c2)c1 (stereo not given) landed at 21 µM

Now for a further compound.
In plain terms, C/C1=C\C/C=C(\C)[C@H]2CC(CC/C(C)=C/CC1)[C@@](C)(CO)O2 has a documented GI50 of 14.6 µM

Source of measurements: PubChem BioAssay (NCI)
